Could you please report measured z-score for the items listed next?
Measurement Protocol: decrease of insulin promoter-GFP reporter – imaging, high-content screening, mouse beta cells (AID 1628)
Test Context: MIN6 insulin promoter GFP reporter, at 5 µM, stronger effect = lower value
The whole screen tested about 190,000 compounds, of which about 930 (0.49%) were called active. The list shows a part of the results. Measured potencies and affinities stand elsewhere.
Give bare numbers.

[
  {
    "Structure Notation": "O=C1N/C(=N/Nc2ccccc2)S/C1=C\\c1ccccc1",
    "z-score": 3.19
  },
  {
    "Structure Notation": "N#CCc1nc(CSc2nc3ccccc3s2)cs1",
    "z-score": 4.03
  },
  {
    "Structure Notation": "Cc1nc([N+](=O)[O-])c(N2CCN(Cc3ccccc3)CC2)n1Cc1ccccc1",
    "z-score": -3.12
  },
  {
    "Structure Notation": "N#C/C(=C/c1ccc(N2CCCCC2)o1)C(=O)Nc1ccc2ccccc2c1",
    "z-score": 12.9
  },
  {
    "Structure Notation": "Cc1nc([N+](=O)[O-])c(Br)n1CC(=O)c1cccc([N+](=O)[O-])c1",
    "z-score": 2.48
  }
]

Here is another molecule to look at.
Q) Sample CCN1C(=O)/C(=C/c2ccc(N3CCCC3)cc2)NC1=S — what was its z-score?
A) 15.8

The reported numbers originate from PubChem BioAssay AID1628.
